Where these numbers come from: paper PMC9780825

# Target Of Assay: Kv1.3 (mKate2-tagged, K-Kv1.3) (Homo sapiens, UniProt P22001)
# Sequence (P22001 whole entry): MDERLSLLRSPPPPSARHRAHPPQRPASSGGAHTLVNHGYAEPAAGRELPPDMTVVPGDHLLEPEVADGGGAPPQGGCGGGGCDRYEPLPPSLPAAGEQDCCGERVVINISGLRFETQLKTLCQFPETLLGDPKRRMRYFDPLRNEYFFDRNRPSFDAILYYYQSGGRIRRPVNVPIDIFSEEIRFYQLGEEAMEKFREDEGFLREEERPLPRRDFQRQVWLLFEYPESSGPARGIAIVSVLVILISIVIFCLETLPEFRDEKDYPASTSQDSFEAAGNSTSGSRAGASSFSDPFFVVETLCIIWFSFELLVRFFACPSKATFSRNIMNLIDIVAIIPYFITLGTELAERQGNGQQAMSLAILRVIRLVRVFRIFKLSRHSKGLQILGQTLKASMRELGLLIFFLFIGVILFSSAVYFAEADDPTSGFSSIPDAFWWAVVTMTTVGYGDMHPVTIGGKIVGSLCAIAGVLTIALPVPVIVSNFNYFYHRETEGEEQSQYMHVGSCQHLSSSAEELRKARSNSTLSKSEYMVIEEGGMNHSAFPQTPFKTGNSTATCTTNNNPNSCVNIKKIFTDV
# Method Description: confocal fluorescence binding on HEK293 cells
No end group written: not given here.
Recorded Endpoint: pKd
Give bare numbers, as −log10 of the molar value.

What value of pKd has been recorded for this entry: Atto488-TVIDVKCTSPKQCLPPCKAQFGIRAGAKCMNGKCKCYPH (ends and bridges not checked) [Hongotoxin 1 (Atto488-labeled, A-HgTx)]
9.52
